targetUnderTest: Cyclin-dependent kinase 5 activator 1 (Homo sapiens) + Cyclin-dependent kinase 5 (Homo sapiens) (UniProt Q15078+Q00535)
Sequence (Q00535 whole entry, looked up): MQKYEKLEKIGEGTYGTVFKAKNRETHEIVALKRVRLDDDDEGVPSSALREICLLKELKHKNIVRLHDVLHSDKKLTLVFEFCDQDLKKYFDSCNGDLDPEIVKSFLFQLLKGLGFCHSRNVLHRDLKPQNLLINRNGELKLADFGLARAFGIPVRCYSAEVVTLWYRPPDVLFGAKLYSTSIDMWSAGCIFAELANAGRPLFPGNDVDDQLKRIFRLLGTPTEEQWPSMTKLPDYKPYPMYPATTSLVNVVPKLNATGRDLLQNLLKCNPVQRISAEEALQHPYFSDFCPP
Sequence (Q15078 whole entry, looked up): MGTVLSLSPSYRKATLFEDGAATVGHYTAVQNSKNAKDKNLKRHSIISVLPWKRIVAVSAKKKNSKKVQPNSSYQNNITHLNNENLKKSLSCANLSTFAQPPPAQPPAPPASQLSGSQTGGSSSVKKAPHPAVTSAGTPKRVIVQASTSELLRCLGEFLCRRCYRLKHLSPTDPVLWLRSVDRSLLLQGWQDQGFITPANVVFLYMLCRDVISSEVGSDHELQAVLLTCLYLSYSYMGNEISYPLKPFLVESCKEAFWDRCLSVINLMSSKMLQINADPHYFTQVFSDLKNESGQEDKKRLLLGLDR
protocolDetails: inhibition of CDK5-p35 phosphorylation activity – biochemical, ADP-Glo luminescence, dry powder samples, dose response (AID 602284)
experimentalSetup: histone H1 peptide, at 30 µM (top of the series)
Activity calls are given as the source filed them.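 Rule for the calls: active = every test run fits a half-maximal inhibitory dose no higher than twice its top dose tested; inconclusive = runs disagree, flat partial inhibition, or poor curve fit; inactive = the rest.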
outcomeMeasure: activity change, negative = inhibition

Past entries and their recorded results:
O=C(c1ccc(F)cc1)N1CCN(c2ccccn2)CC1; inactive
O=C(C1CCCCC1)N1CCN(c2ccccn2)CC1; inactive
Cc1ccnc(N2CCN(C(=O)c3ccc(Cl)cc3)CC2)c1; inactive
CCCCC(=O)N1CCN(c2ccccn2)CC1; inactive
CCCn1c(NC(=O)c2ccc(Cl)c(S(=O)(=O)N3CCCC3)c2)nc2ccccc21; inactive
COc1cc(C(=O)N2CCN(c3ccccn3)CC2)cc(OC)c1OC; inactive
N#Cc1ccc(N2CCN(C(=O)c3ccc(Cl)cc3)CC2)nc1; inactive
COc1ccc(C(=O)N2CCN(c3ccccn3)CC2)cc1; inactive

Read the next record carefully.
Item under review: CC(C)C(=O)N1CCN(c2ccccn2)CC1 . Reported activity change, negative = inhibition?
inactive

* * *

targetUnderTest: Cyclin-dependent kinase 5 activator 1 (Homo sapiens) + Cyclin-dependent kinase 5 (Homo sapiens) (UniProt Q15078+Q00535)
protocolDetails: inhibition of CDK5-p35 phosphorylation activity – biochemical, ADP-Glo luminescence, dry powder samples, dose response (AID 602284)
experimentalSetup: histone H1 peptide
outcomeMeasure: AC50

Item under review: CC(C)(C)n1c(NC(=O)c2cccc(S(C)(=O)=O)c2)nc2ccccc21 . Reported AC50?
12.3 µM

Ok, now CCn1c(NC(=O)c2cccc(S(=O)(=O)NC)c2)nc2ccccc21
29.1 µM

Same for CCCn1c(NC(=O)c2cccc(S(=O)(=O)N3CCCCC3)c2)nc2ccccc21
13.5 µM

And the next one, CCCn1c(NC(=O)c2cccc(S(=O)(=O)N(C)C)c2)nc2ccccc21 ?
10.2 µM

Can you check CCCn1c(NC(=O)c2cccc(S(=O)(=O)N(CC)CC)c2)nc2ccccc21 next?
2.95 µM

* * *

targetUnderTest: Cyclin-dependent kinase 5 activator 1 (Homo sapiens) + Cyclin-dependent kinase 5 (Homo sapiens) (UniProt Q15078+Q00535)
protocolDetails: inhibition of CDK5-p35 phosphorylation activity – biochemical, ADP-Glo luminescence, dry powder samples, dose response (AID 602284)
experimentalSetup: histone H1 peptide, at 30 µM (top of the series)
Calls of active or inactive are those of the source.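 The calls were made as follows: active = every test run fits a half-maximal inhibitory dose no higher than twice its top dose tested; inconclusive = runs disagree, flat partial inhibition, or poor curve fit; inactive = the rest.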
outcomeMeasure: activity change, negative = inhibition

O=C(c1ccccc1Cl)N1CCN(c2ccccn2)CC1; inactive
Cc1ccc(C(=O)N2CCN(c3ccccn3)CC2)cc1; inactive
COCCC(=O)N1CCN(c2ccccn2)CC1; inactive
